Target: GST-Rok-C97-191 (Bacillus subtilis subsp. subtilis str. …, UniProt O34857 97-191)
Sequence: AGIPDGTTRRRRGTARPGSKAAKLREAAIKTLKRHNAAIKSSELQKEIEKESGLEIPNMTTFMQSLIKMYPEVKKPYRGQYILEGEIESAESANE
Experiment: protein binding microarray; Rok is a gene silencer of Bacillus subtilis; high values mean tight binding
Details: protein: recombinant; tags: GST (pTH5325, pDEST15-Magic modified); dsDNA, one strand shown
The full ranking holds about 33,000 sequences; the median of “e-score” is about -0.038, and the highest 2% start at about 0.33. Only a selection was taken, and the highest values are over-represented in it overall.
Classify: Yes when binding signal is strictly less than 0.1 E-score; No when binding signal is not.

{"columns": ["Primary sequence", "Classification"],
 "data": [
  ["CGTAGGCA", "Yes"],
  ["TATAGATA", "No"],
  ["AAATAGAA", "No"],
  ["TAAAGATA", "No"],
  ["CTAAGATA", "No"],
  ["AAATAGAT", "No"],
  ["GGTAAAAC", "No"],
  ["AACATACA", "No"],
  ["GGTAAAAA", "No"],
  ["ACTATTCT", "No"],
  ["CATATACC", "No"],
  ["AATATACC", "No"],
  ["AAATAGAG", "Yes"],
  ["ACGTTGAT", "Yes"],
  ["AATCGCCA", "Yes"],
  ["AATCGTGA", "Yes"],
  ["ATTACCAC", "No"],
  ["AATACACA", "No"],
  ["AGACCACG", "Yes"],
  ["GGACAGAC", "Yes"],
  ["AACATACT", "Yes"],
  ["GAAAGATA", "No"],
  ["AGTTAAAA", "No"],
  ["ACTTTCAT", "Yes"],
  ["CATTCCGA", "Yes"],
  ["TGTAAACA", "Yes"],
  ["ACCTCACT", "Yes"],
  ["GGTAGGTA", "No"],
  ["AGATTCGA", "No"],
  ["AATCAGAC", "Yes"],
  ["CATTAACC", "Yes"],
  ["GGTAAAGA", "No"],
  ["GAATAGAA", "No"],
  ["AGTTAAAT", "No"],
  ["AATAGATA", "No"],
  ["AGTAGGTG", "No"],
  ["AGTAGGTC", "No"],
  ["ATTACCAA", "No"],
  ["ACTATACA", "No"],
  ["GCTAGCCA", "No"],
  ["TATATACA", "No"],
  ["ATGATCCA", "Yes"],
  ["CGAGTCCG", "Yes"],
  ["AAATAGGT", "No"],
  ["AATACAGG", "Yes"],
  ["GATATACC", "No"]
]}
